Kindly supply the reported cell viability values for the records listed here.
test system: Caco-2; test: cell viability relative to DMSO; higher = less toxic; details: 72 h; 1 nM
Give bare numbers, in %.

Requested read-out: cell viability. Entry: "CC(=O)Nc1c(I)cc(I)c(C(=O)O)c1I" 91.2

Another molecule to check: "COc1cc(OC)nc(O[C@H](C(=O)O)C(OC)(c2ccccc2)c2ccccc2)n1" 102

Another molecule to check: "c1cn2cc(-c3ccc4cn[nH]c4c3)nc(Nc3ccc(N4CCOCC4)cc3)c2n1" 108

For each listed entry, give its cell viability.
1. c1ccc2oc(C3=NCCN3)cc2c1
2. Cc1ccc2c(Cl)cc(Cl)c(O)c2n1
3. S=C(S)N1CCCC1 [pyrrolidine-dithiocarbamate]
4. CC1(C)O[C@@H]2C[C@H]3[C@@H]4CCC5=CC(=O)CC[C@]5(C)[C@@]4(F)[C@@H](O)C[C@]3(C)[C@]2(C(=O)CCl)O1 [halcinonide]
5. C[C@H]1COC2=C1C(=O)C(=O)c1c2ccc2c1CCCC2(C)C

1. 102
2. 107
3. 101
4. 106
5. 97.2
